Test system: HeLa cells
method: Inhibition of in vitro growth of HeLa cells (Alamar Blue uptake)
Assay type: cell-based, human
measurementConditions: Homo sapiens; concentration required to inhibit by 50% the uptake of Alamar Blue by HeLa cell cultures
Record form. Attribute: pIC50. Fill in for each entry.
# pIC50: negative log10 of molar concentration; output just the value

Enquiry: Query the reported pIC50 for HeLa cells; item: O=S(=O)(Nc1ccc2[nH]ncc2c1)c1c(F)c(F)c(F)c(F)c1F
Return: 6.00

Enquiry: Under HeLa cells: pIC50 value of COc1ccc(NS(=O)(=O)c2c(F)c(F)c(F)c(F)c2F)cc1Br ?
Return: 6.30

Enquiry: Entry O=S(=O)(Nc1ccc2c(c1)OCO2)c1c(F)c(F)c(F)c(F)c1F , system HeLa cells: what pIC50 was measured?
Return: 5.00

###

Tested on: HeLa cells
method: Inhibition of in vitro growth of HeLa cells (Alamar Blue uptake)
Assay type: cell-based, human
measurementConditions: Homo sapiens; concentration required to inhibit by 50% the uptake of Alamar Blue by HeLa cell cultures
endpoint: IC50

Enquiry: # input molecule: O=S(=O)(Nc1cccc(O)c1)c1c(F)c(F)c(F)c(F)c1F ; wanted: its IC50
Return: 1000 nM

Enquiry: Return reported IC50; argument: CCN(CC)c1ccc(NS(=O)(=O)c2c(F)c(F)c(F)c(F)c2F)cc1
Return: 150 nM

Enquiry: I'd like to know its IC50. The molecule in question is O=S(=O)(Nc1ccc2c(c1)OCCO2)c1c(F)c(F)c(F)c(F)c1F
Return: 1500 nM

Enquiry: Record request: IC50 value, item COc1ccc(N(C)S(=O)(=O)c2c(F)c(F)c(F)c(F)c2F)cc1F
Return: 1500 nM

Enquiry: Bench note: what IC50 did CN(C)c1cccc(NS(=O)(=O)c2c(F)c(F)c(F)c(F)c2F)c1 show?
Return: 150 nM

Enquiry: Which IC50 is reported for this molecule? O=S(=O)(Nc1ccc(N2CCOCC2)cc1)c1c(F)c(F)c(F)c(F)c1F
Return: 10000 nM

Enquiry: Return reported IC50; argument: COc1ccc(NS(=O)(=O)c2c(F)c(F)c(F)c(F)c2F)cc1O
Return: < 50 nM

Enquiry: # IC50 lookup, item CN(C)c1ccc(N(C)S(=O)(=O)c2c(F)c(F)c(F)c(F)c2F)cc1
Return: 10000 nM

Enquiry: Entry COc1ccc(NS(=O)(=O)c2c(F)c(F)c(F)c(F)c2F)cc1F : reported IC50 = ?
Return: < 50 nM

###

Would you kindly list melting point for each of these molecules?

Enquiry: # query: melting point of entry COc1ccc(NS(=O)(=O)c2c(F)c(F)c(F)c(F)c2F)cc1 [Example 8]
Return: 102 to 103 °C

Enquiry: Suppose we examine the molecule COc1ccc(N(CCCCCO)S(=O)(=O)c2c(F)c(F)c(F)c(F)c2F)cc1 [Example 57] ; what melting point value has been reported?
Return: 96 to 97 °C

Enquiry: Please report the recorded melting point for COc1ccc(NS(=O)(=O)c2c(F)c(F)c(F)c(F)c2F)cc1C(F)(F)F [Example 49] .
Return: 121 to 123 °C

Enquiry: Form field: reported melting point of COc1ccc(N(CCC(O)CO)S(=O)(=O)c2c(F)c(F)c(F)c(F)c2F)cc1 (stereo not drawn) [Example 54]
Return: 126 to 128 °C

Enquiry: What value of melting point has been recorded for this entry: COc1cc(Br)c(NS(=O)(=O)c2c(F)c(F)c(F)c(F)c2F)cc1F [Example 41]
Return: 109 °C

Enquiry: Looking for the measured melting point of COc1ccc(N(CCCCO)S(=O)(=O)c2c(F)c(F)c(F)c(F)c2F)cc1 [Example 56] , can you help?
Return: 88 to 90 °C

###

endpoint: melting point

Enquiry: Look at this molecule and give its reported melting point. COc1ccc(N(CCCC(O)CO)S(=O)(=O)c2c(F)c(F)c(F)c(F)c2F)cc1 (centres unmarked)
Return: 116 to 118 °C

Enquiry: Which melting point is listed for COc1ccc(NS(=O)(=O)c2c(F)c(F)c(F)c(F)c2F)cc1[N+](=O)[O-] ?
Return: 95 to 97 °C

Enquiry: What melting point value was documented for this molecule, O=S(=O)(Nc1ccc(Cl)nc1)c1c(F)c(F)c(F)c(F)c1F ?
Return: 144 to 145 °C

Enquiry: I would be grateful if you could share the reported melting point for COc1ccc(N(CC(O)CO)S(=O)(=O)c2c(F)c(F)c(F)c(F)c2F)cc1 (centres unmarked) .
Return: 130 to 131 °C

Enquiry: Which melting point is reported for this molecule? C=CCCN(c1ccc(OC)cc1)S(=O)(=O)c1c(F)c(F)c(F)c(F)c1F
Return: 64 to 66 °C

Enquiry: If you can, please state the reported melting point value of C=CCN(c1ccc(OC)cc1)S(=O)(=O)c1c(F)c(F)c(F)c(F)c1F .
Return: 59 to 60 °C

Enquiry: Entry under review: COc1ccc(N(CCCCCO)S(=O)(=O)c2c(F)c(F)c(F)c(F)c2F)cc1O . Reported melting point?
Return: 118 °C

Enquiry: Tell me the measured melting point of COc1ccc(NS(=O)(=O)c2c(F)c(F)c(F)c(F)c2F)cc1N , please.
Return: 142 to 143 °C
